organism: Bos taurus; assay: Displacement of ethidium bromide from calf thymus DNA by spectrofluorometric analysis
Assign labels as follows, please: t for C50 below 0.7 µM; f for C50 equal to or exceeding 0.7 µM.

Consider the molecule `Cl.c1ccc(OCCCCCCCCOc2ccccc2Nc2c3ccccc3nc3ccccc23)c(Nc2c3ccccc3nc3ccccc23)c1` . Is its C50 strictly less than 0.7 µM?
f

Consider the molecule `CS(=O)(=O)Nc1ccc(Nc2c3ccccc3nc3ccccc23)cc1` . Is its C50 strictly less than 0.7 µM?
f

Consider the molecule `COc1cc(NS(=O)(=O)CCCCCCS(=O)(=O)Nc2ccc(Nc3c4ccccc4nc4ccccc34)c(OC)c2)ccc1Nc1c2ccccc2nc2ccccc12.Cl.O` . Is its C50 strictly less than 0.7 µM?
t

Consider the molecule `CS(=O)(=O)Nc1ccc(Nc2c3ccccc3nc3ccccc23)c(OCCCCOc2cc(NS(C)(=O)=O)ccc2Nc2c3ccccc3nc3ccccc23)c1.Cl` . Is its C50 strictly less than 0.7 µM?
t

====

assay: Lipophilic-hydrophilic balance, Rm of the compound by reversed-phase chromatographic analysis; assay type: physicochemical
Task for the reader: assign each of the following molecules its reported Rm.
Please state the value as a number alone, without comment.

Any idea what Rm was measured for `O.c1ccc(OCCCNc2ccnc3ccccc23)c(Nc2c3ccccc3nc3ccccc23)c1` ?
-0.19

Any idea what Rm was measured for `Cl.c1ccc(OCCCCCCCCCCOc2ccccc2Nc2c3ccccc3nc3ccccc23)c(Nc2c3ccccc3nc3ccccc23)c1` ?
0.92

Any idea what Rm was measured for `Cl.O.O=S(=O)(CCCS(=O)(=O)Nc1ccc(Nc2c3ccccc3nc3ccccc23)cc1)Nc1ccc(Nc2c3ccccc3nc3ccccc23)cc1` ?
-0.16

Any idea what Rm was measured for Cl.Nc1c2ccccc2nc2ccccc12 [AMINACRINE HYDROCHLORIDE] ?
-0.08

====

Task for the reader: assign each of the following molecules its reported Rm.
test: Lipophilic-hydrophilic balance, Rm of the compound by reversed-phase chromatographic analysis; type: physicochemical
Please state the value as a number alone, without comment.

Any idea what Rm was measured for `CS(=O)(=O)Nc1ccc(Nc2c3ccccc3nc3ccccc23)cc1` ?
0

Any idea what Rm was measured for `Cl.c1ccc(OCCCOc2ccccc2Nc2c3ccccc3nc3ccccc23)c(Nc2c3ccccc3nc3ccccc23)c1` ?
0.28

Any idea what Rm was measured for `c1ccc2c(NCCCCCCCCNc3c4ccccc4nc4ccccc34)c3ccccc3nc2c1` ?
0.44

Any idea what Rm was measured for `COc1cc(NS(=O)(=O)CCCCCCS(=O)(=O)Nc2ccc(Nc3c4ccccc4nc4ccccc34)c(OC)c2)ccc1Nc1c2ccccc2nc2ccccc12.Cl.O` ?
0.42

Any idea what Rm was measured for COc1cc(NS(C)(=O)=O)ccc1Nc1c2ccccc2nc2ccccc12 [AMSACRINE] ?
0.18

Any idea what Rm was measured for `COc1cc(NS(=O)(=O)CCCCS(=O)(=O)Nc2ccc(Nc3ccnc4ccccc34)c(OC)c2)ccc1Nc1ccnc2ccccc12.Cl.O` ?
-0.28

Any idea what Rm was measured for `c1ccc2c(NCCCCCCCCCCNc3c4ccccc4nc4ccccc34)c3ccccc3nc2c1` ?
0.65

Any idea what Rm was measured for `c1ccc2c(NCCCCCCCCCCCCCCNc3c4ccccc4nc4ccccc34)c3ccccc3nc2c1` ?
0.82

Any idea what Rm was measured for `c1ccc2c(NCCCCNc3c4ccccc4nc4ccccc34)c3ccccc3nc2c1` ?
-0.26
